Give IC50 for every item shown.
# system.under.test: HDAC11 (Homo sapiens, UniProt Q96DB2)
# Sequence (Q96DB2 whole entry, species assumed): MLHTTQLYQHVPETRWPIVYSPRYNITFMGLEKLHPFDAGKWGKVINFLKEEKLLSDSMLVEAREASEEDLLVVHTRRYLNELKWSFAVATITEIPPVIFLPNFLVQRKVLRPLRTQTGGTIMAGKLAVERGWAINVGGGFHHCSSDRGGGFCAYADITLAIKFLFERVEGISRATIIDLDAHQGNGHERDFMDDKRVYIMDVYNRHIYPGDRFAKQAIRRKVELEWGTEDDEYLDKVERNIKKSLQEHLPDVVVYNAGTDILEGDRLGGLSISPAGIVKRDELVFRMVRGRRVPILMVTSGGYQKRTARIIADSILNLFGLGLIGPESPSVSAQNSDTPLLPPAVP
# assay.explanation: HDAC biochemical activity measurement (fluorescent substrate deacetylation);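 note: HDAC11 enzyme acting on an acetyl-lysine fluorogenic substrate, then a developer frees the fluorophore, read at excitation 360 nm and emission 460 nm, IC50 over a compound dilution series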
One number for each entry, in nM.

In the examples that follow, each entry is paired with its recorded IC50.
compound: C/C=C1\NC(=O)c2nccc(n2)CNC(=O)C[C@@H](/C=C/CCSC(C)=O)OC(=O)[C@H](C)NC1=O [Example 24]
output.unit: nM
meas.value: 97
--
compound: C/C=C1\NC(=O)c2cccc(n2)CNC(=O)C[C@@H](/C=C/CCS)OC(=O)[C@@H](C)NC1=O [Compound 145]
output.unit: nM
meas.value: 83
--
compound: C/C=C1\NC(=O)c2ccc(F)c(n2)CNC(=O)C[C@@H](/C=C/CCSC(=O)CC)OC(=O)[C@H](C(C)C)NC1=O [Example 47]
output.unit: nM
meas.value: 83

Readout IC50 for C/C=C1\NC(=O)c2nc(ccc2SC)CNC(=O)C[C@@H](/C=C/CCSC=O)OC(=O)[C@H](C(C)C)NC1=O [Compound 168] , test system HDAC11 (Homo sapiens, UniProt Q96DB2), was 99

Hey, just so you know, these numbers are from patent US10065990B2.
